In this section, each of the compounds is paired with its reported Inhibition.
test system: Candida albicans; conditions: 20 µM
Description: Antifungal activity against Candida albicans ATCC 90028 (CO-ADD:FG_001); MIC in YNB media using NBS plates, by OD630
Entries with a potency or affinity are not part of this list.

| compound | valueUnits | Inhibition |
| --- | --- | --- |
| Cc1cccc(NC2=C(C#N)C(=O)NC3(CCCC3)S2)c1 | % | 11 |
| COc1ccc(NC(=O)CC(C)=O)c(OC)c1 | % | 0.23 |
| O=C(Nc1cccc([N+](=O)[O-])c1)c1ccc2ccccc2c1O | % | 3.5 |
| OC(COc1ccc(Cl)cc1)CN1CCN(c2cccc(Cl)c2)CC1 (stereo not given) | % | -0.89 |
| CN(C)c1ccc(/C=C/C(=O)c2cc(Cl)ccc2O)cc1 | % | 8.13 |
| Oc1nc2[nH]c(Cl)nc(Cl)c-2n1 | % | -2.33 |
| Cl.Nc1ncnc2c(C3OC(CO)C(O)C3O)c[nH]c12 (stereo not given) | % | 2.09 |
| O=C1c2ccccc2C(=O)c2[nH]cnc21 | % | 6.65 |
| O=C1COc2c1ccc(O)c2O | % | 0.16 |
| NC(=O)c1ccccc1OCC(=O)Nc1ccc(Cl)c(Cl)c1 | % | 4.37 |
| Nc1ncnc2c1ncn2C1OC(CO)C(O)C1N (stereo not given) | % | -0.11 |
| CNC(=O)OCN1C(=O)C2CC=CCC2C1=O (stereo not given) | % | -1.86 |
| Cn1cnc([N+](=O)[O-])c1Sc1nnc(-c2cccnc2)n1C | % | 6.51 |
| C=CCN1CCN(c2ccncc2S(=O)(=O)N2CCN(C)CC2)CC1 | % | -0.33 |
| O=C1C2C3C=CC(CC3)C2S(=O)(=O)C2C3C=CC(CC3)C12 (stereo not given) | % | 3.05 |
| Nc1cnc(Nc2ccc(Br)cc2)nc1N.O=S(=O)(O)O | % | 3.46 |
| Cc1cc(NC(=O)NC(=O)c2ccccc2NC(=O)C(C)N)ccc1Oc1ncc(Br)cn1.Cl (stereo not given) | % | -1.4 |
| C[C@@H]1C[C@H]2OC(=O)[C@@]3(C)CCC[C@@](C)([C@@H]23)[C@@]1(O)CCc1ccoc1 | % | -0.12 |
| O=C1OCC/C1=C\c1ccc2c(c1)OCO2 | % | 3.83 |
| CNc1ccc(/N=N/c2cc[n+]([O-])cc2C)cc1C | % | -0.41 |
| CCOc1cc2c(Cl)ncnc2c(OCC)c1OCC | % | 2.82 |
| Cc1ccc(S(=O)(=O)N(C)C)cc1[N+](=O)[O-] | % | 0.81 |
| Cc1cc2c(cc1C)N(C(=O)CCl)CC(=O)N2 | % | 2.46 |
| COC(=O)c1ccc(C(=O)OC)c(O)n1 | % | 0.7 |
| CC(C)(C)n1nc(C2CC2)cc1NC(=O)Nc1ccccc1 | % | 1.47 |
